Reported Rate of weight loss by TG-DTA values are given for each entry in this list.
- Experiment: Rate of weight loss by TG/DTA
- Assay type: physicochemical
- Experimental Parameters: heated in nitrogen gas from 25° C. to 300° C. at 10° C./minute
Expressed in %, but write only the number.

The following molecules have reported results that may help.
[[record]]
molecule = "CN1C(C)(C)CC(OC(=O)CC(C(=O)OC2CC(C)(C)N(C)C(C)(C)C2)C(CC(=O)OC2CC(C)(C)N(C)C(C)(C)C2)C(=O)OC2CC(C)(C)N(C)C(C)(C)C2)CC1(C)C (stereo not shown)"
assay_result = 5.8

[[record]]
molecule = "CC1(C)CC(OC(=O)CCCCCCCCC(=O)OC2CC(C)(C)NC(C)(C)C2)CC(C)(C)N1"
assay_result = 19.6

[[record]]
molecule = "CCCCCCCCON1C(C)(C)CC(OC(=O)CCCCCCCCC(=O)OC2CC(C)(C)N(OCCCCCCCC)C(C)(C)C2)CC1(C)C"
assay_result = 68.6


Challenge: Query: Rate of weight loss by TG-DTA; subject: CC(C)(C)c1ccc(OC(=O)c2cc(C(C)(C)C)c(O)c(C(C)(C)C)c2)c(C(C)(C)C)c1
Response given: 31.6
